From: paper PMC3626704

Readings of F_competitive (signal with 40 nM free 5-Helix / signal without) for the listed binders
Biological target: T1, 5-Helix (HIV-1 group M subtype B, HXB2 (gp41 …, stabilised))
T1 construct: also called designed protein based on HIV-1 gp41
Assay: ELISA
Conditions: one partner purified
quantity.measured: F_competitive (signal with 40 nM free 5-Helix / signal without) (fraction)

binder="25D3 bivalent scFv on phage (scFv, V domains shown) VH: QVQLVQSGAEVRKPGASVKVSCKASGDTFSSYAISWVRQAPGQGLEWMGGIIPIFGTANYAQAFQGRVTITANESTSTAYMELSSLRSEDTAIYYCARDNPTLLGSDYWGAGTLVTVSS VL: DIQMTQSPSTLSASIGDRVTITCRASENIHRRLAWYQQKPGKAPKLLIYSAYSLASGAPSRFSGSGSGTDFTLTISSLQPDDFATYYCQQNSDYPHTFGGGTKLEIK" test_result=0.1
binder="25A5 bivalent scFv on phage (scFv, V domains shown) VH: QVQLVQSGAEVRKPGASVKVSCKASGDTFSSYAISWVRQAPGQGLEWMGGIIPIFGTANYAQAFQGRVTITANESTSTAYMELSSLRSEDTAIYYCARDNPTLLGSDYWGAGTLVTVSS VL: DIQMTQSPSTLSASIGDRVTITCRASESIRSHLAWYQQKPGKAPKLLISRASRLASGAPSRFSGSGSGTDFTLTISSLQPDDFATYYCQQSSDYPHTFGGGTKLEIK" test_result=0.1
binder="25F10 bivalent scFv on phage (scFv, V domains shown) VH: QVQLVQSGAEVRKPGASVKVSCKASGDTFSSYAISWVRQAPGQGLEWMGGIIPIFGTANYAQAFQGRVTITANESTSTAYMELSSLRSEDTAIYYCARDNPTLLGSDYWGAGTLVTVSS VL: DIQMTQSPSTLSASIGDRVTITCRASEGIHNRLAWYQQKPGKAPKLLISHASNLASGAPSRFSGSGSGTDFTLTISSLQPDDFATYYCQQYSNYPLTFGGGTKLEIK" test_result=0.1
binder="25G8 bivalent scFv on phage (scFv, V domains shown) VH: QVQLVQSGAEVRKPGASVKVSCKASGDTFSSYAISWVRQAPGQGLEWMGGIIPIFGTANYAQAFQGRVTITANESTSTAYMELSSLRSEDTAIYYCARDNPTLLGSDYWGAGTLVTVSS VL: DIQMTQSPSTLSASIGDRVTITCRASESIGRSLAWYQQKPGKAPKLLIYRASRLASGAPSRFSGSGSGTDFTLTISSLQPDDFATYYCQQSSTTPLTFGGGTKLEIK" test_result=0.1
binder="25C12 bivalent scFv on phage (scFv, V domains shown) VH: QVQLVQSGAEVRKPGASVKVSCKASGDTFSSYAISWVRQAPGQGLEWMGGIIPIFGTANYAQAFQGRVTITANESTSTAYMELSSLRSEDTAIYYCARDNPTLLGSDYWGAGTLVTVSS VL: DIQMTQSPSTLSASIGDRVTITCRASEDISSVLAWYQQKPGKAPKLLIYNASRLASGAPSRFSGSGSGTDFTLTISSLQPDDFATYYCQQRANNPHTFGGGTKLEIK" test_result=0.3
binder="16G6 bivalent scFv on phage (scFv, V domains shown) VH: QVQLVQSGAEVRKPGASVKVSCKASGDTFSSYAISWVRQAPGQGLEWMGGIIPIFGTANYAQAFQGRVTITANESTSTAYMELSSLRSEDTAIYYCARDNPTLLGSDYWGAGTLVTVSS VL: DIQMTQSPSTLSASIGDRVTITCRASEGIRRSLAWYQQKPGKAPKLLISNASHLASGAPSRFSGSGSGTDFTLTISSLQPDDFATYYCQQYYNYPRTFGGGTKLEIK" test_result=0.3
binder="25A10 bivalent scFv on phage (scFv, V domains shown) VH: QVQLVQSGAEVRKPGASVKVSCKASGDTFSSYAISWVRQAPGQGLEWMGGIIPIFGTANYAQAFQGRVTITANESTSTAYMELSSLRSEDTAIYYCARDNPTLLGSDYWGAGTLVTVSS VL: DIQMTQSPSTLSASIGDRVTITCRASESISHNLAWYQQKPGKAPKLLISNASRLASGAPSRFSGSGSGTDFTLTISSLQPDDFATYYCQQYSNYPLTFGGGTKLEIK" test_result=0.1
binder="25A6 bivalent scFv on phage (scFv, V domains shown) VH: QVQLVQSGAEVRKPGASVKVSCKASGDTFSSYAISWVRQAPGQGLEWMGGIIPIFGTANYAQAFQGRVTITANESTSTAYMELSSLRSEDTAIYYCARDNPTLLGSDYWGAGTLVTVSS VL: DIQMTQSPSTLSASIGDRVTITCRASEGIYDGLAWYQQKPGKAPKLLISRAYYLASGAPSRFSGSGSGTDFTLTISSLQPDDFATYYCQQRANYPHTFGGGTKLEIK" test_result=0.1
binder="16E8 bivalent scFv on phage (scFv, V domains shown) VH: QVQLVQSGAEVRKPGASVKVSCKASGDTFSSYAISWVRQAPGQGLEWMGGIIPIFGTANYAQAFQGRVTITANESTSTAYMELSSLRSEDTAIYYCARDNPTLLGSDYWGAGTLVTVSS VL: DIQMTQSPSTLSASIGDRVTITCRASESIYGSLAWYQQKPGKAPKLLISHASHLASGAPSRFSGSGSGTDFTLTISSLQPDDFATYYCQQNDTYPHTFGGGTKLEIK" test_result=0.4
binder="25B8 bivalent scFv on phage (scFv, V domains shown) VH: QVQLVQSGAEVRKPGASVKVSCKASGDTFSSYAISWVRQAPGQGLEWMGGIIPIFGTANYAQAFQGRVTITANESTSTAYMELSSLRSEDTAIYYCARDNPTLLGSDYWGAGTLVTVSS VL: DIQMTQSPSTLSASIGDRVTITCRASENINRNLAWYQQKPGKAPKLLISRASRLASGAPSRFSGSGSGTDFTLTISSLQPDDFATYYCQQRYNYPYTFGGGTKLEIK" test_result=0.2
binder="25B4 bivalent scFv on phage (scFv, V domains shown) VH: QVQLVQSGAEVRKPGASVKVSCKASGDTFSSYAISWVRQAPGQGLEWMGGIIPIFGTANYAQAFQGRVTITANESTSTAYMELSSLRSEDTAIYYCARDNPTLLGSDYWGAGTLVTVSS VL: DIQMTQSPSTLSASIGDRVTITCRASEGIRNGLAWYQQKPGKAPKLLISRASHLASGAPSRFSGSGSGTDFTLTISSLQPDDFATYYCQQYYAYPHTFGGGTKLEIK" test_result=0.1
